target_or_system: CCK receptors (Cavia porcellus, UniProt Q63931)
Construct: cortex and pancreas were removed and rinsed with ice-cold saline; from tissue; host or cells: guinea pig pancreas membranes
Sequence (Q63931 whole entry): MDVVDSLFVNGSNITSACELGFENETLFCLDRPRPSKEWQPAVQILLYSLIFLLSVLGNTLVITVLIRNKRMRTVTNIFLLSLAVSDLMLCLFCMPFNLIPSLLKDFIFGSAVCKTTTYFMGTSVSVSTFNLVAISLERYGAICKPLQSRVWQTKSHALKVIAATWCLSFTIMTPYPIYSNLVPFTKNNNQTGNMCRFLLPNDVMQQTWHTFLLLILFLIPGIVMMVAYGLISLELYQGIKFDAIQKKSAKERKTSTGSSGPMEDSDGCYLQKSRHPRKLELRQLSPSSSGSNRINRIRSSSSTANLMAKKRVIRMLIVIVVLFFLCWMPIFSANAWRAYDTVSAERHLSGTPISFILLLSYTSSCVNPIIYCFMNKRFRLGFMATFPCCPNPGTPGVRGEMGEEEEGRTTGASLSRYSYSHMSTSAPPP
test_name: [125I]BH-CCK8 radioligand binding, guinea pig pancreatic membranes
condition_set: 37°C for 30 min, read-out: IC₅₀ (nM) [¹²⁵I]-BH-CCK₈ Pancreas
readout: IC50 (nM)

Consider the worked cases shown below.
{"molecule": "CCCCCN(CCCCC)C(=O)[C@@H](CC1C(=O)Nc2ccccc21)NC(=O)c1cnc2ccccc2c1 (stereo partly drawn)", "target_or_system": "CCK receptors (Cavia porcellus, UniProt Q63931)", "IC50 [nM]": 10}
{"molecule": "CCCCCN(CCCCC)C(=O)[C@@H](Cc1c[nH]c2ccc(O)cc12)NC(=O)c1cnc2ccccc2c1", "target_or_system": "CCK receptors (Cavia porcellus, UniProt Q63931)", "IC50 [nM]": 2.6}
{"molecule": "CN(Cc1ccccc1)C(=O)C(Cc1c[nH]c2ccccc12)NC(=O)c1cnc2ccccc2c1 (stereo not drawn)", "target_or_system": "CCK receptors (Cavia porcellus, UniProt Q63931)", "IC50 [nM]": 530}
{"molecule": "CCCCCN(CCCCC)C(=O)[C@@H](Cc1c[nH]c2ccccc12)NC(=O)c1cc2ccccc2cn1", "target_or_system": "CCK receptors (Cavia porcellus, UniProt Q63931)", "IC50 [nM]": 630}
{"molecule": "CCCCCN(CCCCC)C(=O)[C@H]1Cc2c([nH]c3ccccc23)N1C(=O)c1cnc2ccccc2c1", "target_or_system": "CCK receptors (Cavia porcellus, UniProt Q63931)", "IC50 [nM]": 370}
{"molecule": "COC(=O)[C@@H](NC(=O)[C@@H](Cc1c[nH]c2ccccc12)NC(=O)c1cc2ccccc2[nH]1)c1ccccc1", "target_or_system": "CCK receptors (Cavia porcellus, UniProt Q63931)", "IC50 [nM]": 150}
{"molecule": "CCCCCN(CCCCC)C(=O)[C@@H](Cc1c[nH]c2ccccc12)NC(=O)c1cc2ccccc2[nH]1", "target_or_system": "CCK receptors (Cavia porcellus, UniProt Q63931)", "IC50 [nM]": 51}

(A) CCCCCN(CCCCC)C(=O)[C@@H](Cc1c[nH]c2ccccc12)NC(=O)c1cc2cc(F)ccc2[nH]1
(B) CCCCCN(CCCCC)C(=O)[C@@H](Cc1c[nH]c2ccccc12)NC(=O)c1ccc2cccc(O)c2n1
Prompt line: Which is greater in IC50, the first item A or the second item B ? Refer to your chosen entry by its label in the reply.
Response line: B
(B: 230 nM, A: 82 nM)
